Biological target: recombinant human IL-1B (human, UniProt P01584 117-269)
Test: cell-based or functional assay
// reported IC90, rec. human IL-1 B, HEK blue for each item listed
Report the value in pM with no unit label.

Antibody B1 (antibody, V domains shown) VH: EVQLVQSGAEVKKPGASVKVSCKASGFSFTGYYMHWVRQAPGQGLEWVGLIIPHNDYTVNNQKFKGRVTMTRDTSTSTAYMELSSLRSEDTAVYYCARSDYYGAMDYWGQGTLVTVSS VL: EIVMTQSPATLSVSPGERATLSCRASQNIGTSIHWYQQKPGQAPRLLIKYASNSIYGIPARFSGSGSGTEFTLTISSLQSEDIAVYYCQQGASWPPFTFGQGTKLEIK: 110

Lab note: next binder to report on.
// query Consider the binder shown here: Antibody B4 (antibody, V domains shown) VH: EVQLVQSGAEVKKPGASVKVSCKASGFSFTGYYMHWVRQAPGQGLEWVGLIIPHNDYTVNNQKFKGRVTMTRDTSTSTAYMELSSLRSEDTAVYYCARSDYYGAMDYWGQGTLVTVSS VL: EIVMTQSPATLSVSPGERATLSCRASQNIGTSIHWYQQKPGQAPRLLIKYASDSKDGIPARFSGSGSGTEFTLTISSLQSEDIAVYYCQQGASWPPFTFGQGTKLEIK What is its recorded IC90, rec. human IL-1 B, HEK blue?
// result 98
